All figures here come from paper PMC7178755.

assay: Plasma toxicokinetics after single gavage administration in rats; format: in vivo, Harlan Sprague Dawley rats; conditions: male, Hsd:Sprague Dawley SD, rat, plasma, po, 34 mg/kg
measurement-label: Cmax (ng/mL)

1. Oc1ccc(C(c2ccc(O)cc2)(C(F)(F)F)C(F)(F)F)cc1: 60.7
